Kindly state melting point for each of the entries shown.

QUERY: Quick one: melting point of C[C@@H]1CN(c2ccc(C(F)(F)F)cn2)C[C@H](C)N1CC(=O)N1CCc2nn(-c3ccc(C(F)(F)F)cn3)cc2C1 ?
RESULT: 190 to 191 °C

QUERY: I have this compound here, O=C(CN1CCN(c2ccc(-c3ccn[nH]3)cn2)CC1)N1CCc2nc(-c3ccccc3)sc2C1 , and I need its recorded melting point.
RESULT: 231 to 237 °C

QUERY: Fill in: melting point of C[C@@H]1CN(c2ccc(C(=O)O)cn2)C[C@H](C)N1CC(=O)N1CCc2nn(C(C)(C)C)cc2C1 is ___
RESULT: 120 to 121 °C

QUERY: Suppose we examine the compound C[C@@H]1CN(c2ccc(C(F)(F)F)nc2)C[C@H](C)N1CC(=O)N1CCc2nn(-c3ccccc3)cc2C1 ; what melting point value has been reported?
RESULT: 174 to 175 °C

---

measurement-type: melting point

QUERY: For the compound shown here, O=C(O)c1ccc(N2C3CCC2CN(CC(=O)N2CCc4nc(-c5ccc(F)cc5)sc4C2)C3)nc1 , give the reported melting point.
RESULT: 240 to 244 °C

QUERY: Looking for the measured melting point of COC(=O)c1ccc(N2C3CCC2CN(CC(=O)N2CCc4nn(-c5ccc(C(F)(F)F)cn5)cc4C2)C3)nc1 , can you help?
RESULT: 217 to 218 °C

QUERY: Given the entry N#Cc1ccc(N2C3CCC2CN(CC(=O)N2CCc4nn(-c5ccccc5)cc4C2)C3)nc1 , report its measured melting point.
RESULT: 198 to 200 °C

QUERY: Using the record for COC(=O)c1ccc(N2CC3CCC(C2)N3CC(=O)N2CCc3nn(-c4ccccc4)cc3C2)nc1 , report its melting point.
RESULT: 157 to 158 °C

QUERY: // lookup melting point for O=C(CN1CC2CC1CN2c1ccc(C(F)(F)F)nn1)N1CCc2nn(-c3ccc(C(F)(F)F)cn3)cc2C1 (centres unmarked)
RESULT: 140 to 141 °C

QUERY: Give the measured melting point of O=C(CN1CCN(c2ccc(C(F)(F)F)cn2)C(=O)C1)N1CCc2nc(-c3cccnc3)sc2C1 .
RESULT: 180 to 183 °C

QUERY: Need melting point, item O=C(CN1CCN(c2ccc(C(F)(F)F)cn2)C(=O)C1)N1CCc2nc(-c3ccsc3)sc2C1
RESULT: 179 to 180 °C

QUERY: Query: melting point; subject: CCn1cc2c(n1)CCN(C(=O)CN1CCN(c3ccc(C(F)(F)F)cn3)C(=O)C1)C2
RESULT: 151 to 152 °C

---

Assign melting point to each entry below.

QUERY: Reported melting point for O=C(O)c1ccc(N2CC3CCC(C2)N3CC(=O)N2CCc3nc(-c4ccccc4)sc3C2)nc1 : what is it?
RESULT: 250 to 251 °C

QUERY: Need melting point of O=C(CN1CC2CCC(C1)N2c1ncc(F)cn1)N1CCc2nn(-c3ccc(C(F)(F)F)cn3)cc2C1 , thanks.
RESULT: 208 to 209 °C

QUERY: Entry C[C@@H]1CN(c2ccc(S(C)(=O)=O)cn2)C[C@H](C)N1CC(=O)N1CCc2nn(-c3ccccc3)cc2C1 [compound 131] has what melting point?
RESULT: 103 to 105 °C

QUERY: Suppose we examine the compound CC(C)(C)n1ncc2c1CCN(C(=O)CN1CC3CCC(C1)N3c1ncc(F)cn1)C2 ; what melting point value has been reported?
RESULT: 142 to 143 °C

QUERY: Item O=C(CN1CC2CC1CN2c1ccc(C(F)(F)F)cn1)N1CCc2nn(-c3ccccc3)cc2C1 (centres unmarked) [compound 127] has what recorded melting point?
RESULT: 174 to 175 °C

QUERY: What does the data say about its melting point? Entry: O=C(CN1CC2CCC(C1)N2c1cncnc1)N1CCc2nn(-c3ccccc3)cc2C1
RESULT: 197 to 198 °C

QUERY: Quick one: melting point of Cc1nc2c(s1)CN(C(=O)CN1CC3CCC(C1)N3c1ncc(F)cn1)CC2 ?
RESULT: 137 to 138 °C

QUERY: # input compound: O=C(CN1CC2CCC(C1)N2c1ncc(F)cn1)N1CCc2nc(-c3ccccc3)[nH]c2C1 ; wanted: its melting point
RESULT: 130 to 132 °C
